# target: T1, human FSTL1 (construct not stated) (human, UniProt Q12841 21-308)
# T1 construct: also called human FSTL1 antigen; FSTL1 (R&D Systems, Inc. Cat#1694-FN-050)
# T1 sequence: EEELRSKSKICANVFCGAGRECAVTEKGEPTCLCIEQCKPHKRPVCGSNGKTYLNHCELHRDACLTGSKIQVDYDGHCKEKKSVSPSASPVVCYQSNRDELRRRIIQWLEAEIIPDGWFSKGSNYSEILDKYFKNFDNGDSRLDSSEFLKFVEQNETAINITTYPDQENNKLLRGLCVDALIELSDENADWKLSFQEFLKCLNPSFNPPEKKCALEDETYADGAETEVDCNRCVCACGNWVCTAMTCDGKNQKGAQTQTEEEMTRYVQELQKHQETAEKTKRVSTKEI
# experimental.protocol: SPR (Biacore T-200), captured antibody, human FSTL1 10 µg/ml
test.readout: Binding amount (RU)
Quick note: give the figure in RU, leave out the unit.

>>> measured_number("anti-FSTL1 antibody clone #6-55 (chicken-mouse chimeric antibody) (antibody, mouse IgG1, kappa, V domains shown, also called Anti-FSTL1 mAb (#6-55)) VH: AVTLDESGGGLQTPGGALSLVCKGSGFTFTSVTMQWVRQAPGKGLEWVASVCSGSSTYYAPAVKGRATISRDNGQSTVRLQLSNLRPEDTGTYYCAKIAGRARWSCTSAAYNIDAWGHGTEVIVSS VL: ASTQPSSVSAIPGETVKITCSGGGNNYGWYQQRSPGSAPVTVIYYNDNRPSNIPSRFSGSTSGSTSTLTITGVQADDEAIYYCGSWDSNTDSGIFGAGTTLTVLG")
11
>>> measured_number("anti-FSTL1 antibody clone #7-34 (chicken-mouse chimeric antibody) (antibody, mouse IgG1, kappa, V domains shown) VH: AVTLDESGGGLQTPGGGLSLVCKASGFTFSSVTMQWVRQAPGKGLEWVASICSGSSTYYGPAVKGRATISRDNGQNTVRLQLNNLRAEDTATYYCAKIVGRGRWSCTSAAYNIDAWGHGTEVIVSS VL: ASTQPSSVSANPGETVKITCSGGGNNYGWYQQKSPGSAPVTVIYYNNNRPSNIPSRFSGSTSGSTSTLTITGVQAEDEAVYYCGSYEGSTDSGIFGAGTTLTVLG")
14.2

From here, focus on the item given below.
Please look up its Binding amount (RU): anti-FSTL1 antibody clone #8-4 (chicken-mouse chimeric antibody) (antibody, mouse IgG1, kappa, V domains shown) VH: AVTLDESGGGLQTPGGGLSLVCKGSGFTLSSFNMFWVRQAPGKGLEWVAGVGKDGGTAYGAAVDGRATISRDSGQSTVRLQLNNLRAEDTGTYFCAKAAGGCSYSWCGAYVGDLDAWGHGTEVIVSS VL: ASSQPSSVSANPGETVKITCSGGSGYYYGWYQQKSPGSAPVTVIYNNDNKPSDIPSRFSGSKSGSTGTLTITGVQVEDEAVYFCGGYDNSGTGIFGAGTTLTVLG
11.6
